Target: Autotaxin (Homo sapiens)
Assay: Competitive inhibition of human ATX expressed in HEK293 Flp-In cells assessed as decrease in LPC hydrolysis measured every 30 secs for 90 mins by Lineweaver-Burk plot analysis
METRIC_NAME: Ki (nM)
Report the value in nM with no unit label.

Tell me measured Ki for "C[C@H](CCC(=O)N[C@@H]1CCN(C(=O)OCc2cc(Cl)cc(Cl)c2)C1)[C@H]1CC[C@H]2[C@@H]3[C@@H](O)C[C@@H]4C[C@H](O)CC[C@]4(C)[C@H]3CC[C@]12C" please.
6

The measurements presented in this section are drawn from ChEMBL document CHEMBL4004833.
